Provenance of the data: patent US12077483B2

# Lookup of reported Encapsulation (%) keyed by entry
protocolDetails: RNA encapsulation efficiency of LNP (Ribogreen fluorescence assay)
Type: physicochemical
measurementSetup: LNP with the compound as amine lipid; Expt. 7; composition ratio (mol %) 50/9/38/3 for Cmpnd 49, 50/10/38.5/1.5 for the others
Numbers only here, please. The scale is %.

A selection of reference data follows.
1) CCCCC/C=C\C/C=C\CCCCCCCC(=O)OCC(COC(=O)CCCCCCC/C=C\C/C=C\CCCCC)OC(=O)CCC(CCCCCCCCCC)OC(=O)OCCCN1CCCC1 (stereo not drawn) = 98
2) CCCCC/C=C\C/C=C\CCCCCCCC(=O)OCC(COC(=O)CCCCCCC/C=C\C/C=C\CCCCC)OC(=O)CCC(CCCCCC)OC(=O)OCCCN1CCCC1 (stereo not drawn) = 98

Kindly review the next compound as well.
Exercise: // Input: CCCCC/C=C\C/C=C\CCCCCCCC(=O)OCC(COC(=O)CCCCCCC/C=C\C/C=C\CCCCC)OC(=O)CCC(CCCCCCCC)OC(=O)OCCCN1CCCC1 (stereo not drawn) . Output its Encapsulation (%) only.
Solution: 98
